Data provenance is patent US20180214548A1.

assay-target: CD28 (human, UniProt P10747 19-152)
Sequence (P10747 19-152 limits assumed): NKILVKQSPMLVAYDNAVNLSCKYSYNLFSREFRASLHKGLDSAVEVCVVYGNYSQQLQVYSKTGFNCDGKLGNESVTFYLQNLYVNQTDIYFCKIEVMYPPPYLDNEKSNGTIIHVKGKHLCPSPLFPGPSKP
protocol-notes: ELISA, coated protein 1 ug/mL; antibody concentration not stated
measure: OD450 nm
# respond with the number and nothing more

chimeric anti-PD-1 antibody 21G8F11 (antibody, V domains shown, Purified from hybridoma of Harbour H2L2 mice: human variable regions, rat constant regions) VH: EVQLLESGGGLAQPGGSLRLSCAASGFSFNTYLMHWVRQAPGKGLEWVSAISGGGGNTYYADSVKGRFTISRDNSKNTLYLQMNSLRAEDTAVYYCAKENRIPVAPFDYWGQGTLVTVSS VL: DIQMTQSPSTLSASVGDRVTITCRASQSISTWLAWYQQKPGKAPKLLIYKASSLESGVPSRFSGSGSGTEFTLTISSLQPDDLATYYCQQYNSFSWTFGQGTKVEIK | 0.144
chimeric anti-PD-1 antibody 32B5C7 (antibody, V domains shown, Purified from hybridoma of Harbour H2L2 mice: human variable regions, rat constant regions) VH: EVQLLESGGGLVQPGGSLRLSCAASGFTFSSYAMSWVRQAPGKGLEWVSTISGSGGTTYYADSVKGRFTISRDNSKNTLYLQMNSLRAEDTAVYYCTLTGDPDYWGQGTLVTVSS VL: EIVLTQSPATLSLSPGERATLSCRASQSVSSYLAWYQQKPGQAPRLLIYDASKRATGIPARFSGSGSGTDFTLTISSLEPEDFAVYYCQQRNNWPLTFGGGTKVEIK | 0.062
chimeric anti-PD-1 antibody 76G5B3 (antibody, V domains shown, Purified from hybridoma of Harbour H2L2 mice: human variable regions, rat constant regions) VH: QVQLVESGGGVVQPGRSLRLSCAASGFTFSDYGFHWVRQAPGKGLEWVAVIWYDGSNEYYTDSVKGRFTISRDNSKNTLYLQMNSLRAEDTAMYFCVVNPFDYWGQGTLVTVSS VL: DIQMTQSPSSLSAFVGDRVTITCRASQGINHYLAWYQQKPGKAPNLLILAASTLLSGVPSRFGGRGSGTDFTLIISSLQPEDVATYYCQKYDSAPYTFGQGTKLEIK | 0.061

From here, focus on the item given below.
In: Would you kindly share the measured OD450 nm for chimeric anti-PD-1 antibody 223G6B5 (antibody, V domains shown, Purified from hybridoma of Harbour H2L2 mice: human variable regions, rat constant regions) VH: QVQLQESGPGLVKPSETLSLTCAVSGHSIRGSYFWGWIRQPPGRGLEWIGSIYHSGSTYTNPSLKSRATISVDTSKNQFSLKLNSVTAADTAVYYCARDLDIATTRDYWGQGTLVTVSS VL: DIQLTQSPSFLSASVGDRVTIICRASQGINNYLAWYQQKPGKAPKLLIYAASTLQSGVPSRFSGSGSGTEFTLTISSLQPEDFATYYCQQLDSYPRTFGQGTKVEIKR ?
Out: 0.166
